Where these numbers come from: ChEMBL document CHEMBL4725257

assay: Photo-oxidation of L-tryptophan assessed as oxidative damage at 10 uM irradiated with white LED light at 15 mins interval for 60 mins by fluorescence based analysis; assay type: ADME; conditions: 1 h
reported-metric: Activity

Below, each entry is followed by its recorded Activity result.
O=C(O)/C=C/c1ccc(-c2ccc(-c3ccc(N(c4ccccc4)c4ccccc4)cc3)s2)s1 ... Active
O=C(O)CCc1ccc(-c2ccc(-c3ccc(N(c4ccccc4)c4ccccc4)cc3)s2)s1 ... Active
c1ccc(N(c2ccccc2)c2ccc(-c3ccc(-c4cccs4)s3)cc2)cc1 ... Active
C[n+]1ccc(/C=C/c2ccc(-c3ccc(-c4ccc(N(c5ccccc5)c5ccccc5)cc4)s3)s2)cc1.[I-] ... Active
O=C(O)c1ccc(-c2ccc(-c3ccc(N(c4ccccc4)c4ccccc4)cc3)s2)s1 ... Active

The compound listed as `O=C(O)C(=Cc1ccc(-c2ccc(-c3ccc(N(c4ccccc4)c4ccccc4)cc3)s2)s1)C(=O)O` shows Activity equal to Active

---

test: Drug uptake in human HeLa cells at 20 uM incubated for 1 hr at 37 degC by fluorescence based analysis; assay type: ADME, cell-based
Mark Met only for Drug uptake values smaller than 200 pmol; exact matches and larger values are Not met.

IN: Dear reviewer, please state whether `O=C(O)c1ccc(-c2ccc(-c3ccc(N(c4ccccc4)c4ccccc4)cc3)s2)s1` has Drug uptake strictly beneath 200 pmol.
OUT: Not met

IN: Dear reviewer, please state whether `c1ccc(N(c2ccccc2)c2ccc(-c3ccc(-c4cccs4)s3)cc2)cc1` has Drug uptake strictly beneath 200 pmol.
OUT: Met

IN: Dear reviewer, please state whether `O=C(O)CCc1ccc(-c2ccc(-c3ccc(N(c4ccccc4)c4ccccc4)cc3)s2)s1` has Drug uptake strictly beneath 200 pmol.
OUT: Not met

IN: Dear reviewer, please state whether `O=C(O)/C=C/c1ccc(-c2ccc(-c3ccc(N(c4ccccc4)c4ccccc4)cc3)s2)s1` has Drug uptake strictly beneath 200 pmol.
OUT: Met

IN: Dear reviewer, please state whether `O=C(O)C(=Cc1ccc(-c2ccc(-c3ccc(N(c4ccccc4)c4ccccc4)cc3)s2)s1)C(=O)O` has Drug uptake strictly beneath 200 pmol.
OUT: Met

IN: Dear reviewer, please state whether `C[n+]1ccc(/C=C/c2ccc(-c3ccc(-c4ccc(N(c5ccccc5)c5ccccc5)cc4)s3)s2)cc1.[I-]` has Drug uptake strictly beneath 200 pmol.
OUT: Not met
